Test system: Human betaherpesvirus 6
Test: Antiviral activity against Human herpesvirus 6 infected in HEL assessed as reduction in virus-induce cytopathicity
Type: functional, organism-based
pEC50: −log10 of the molar value.
The reader will find reported pEC50 values listed item by item below.

Please review the entries below; each comes with its answer.
COMPOUND	MEASURE	TEST RESULT
CCCCCCCCCCCCCCCCOCCO[P@@]1(=O)CO[C@@H](Cn2cnc3c(N)nc(N)nc32)CO1	pEC50	< 4.36
CCCCOC(=O)c1ccccc1OP1(=O)CO[C@@H](Cn2cnc3c(N)nc(N)nc32)CO1 (stereo partly drawn)	pEC50	< 3.69
Nc1nc(N)c2ncn(C[C@@H](CO)OCP(=O)(O)OCC(F)(F)F)c2n1	pEC50	< 4.21
CC(C)OC(=O)[C@@H](CO[P@@]1(=O)CO[C@@H](Cn2cnc3c(N)nc(N)nc32)CO1)NC(=O)[C@@H](N)C(C)C	pEC50	< 3.75
CCCCCCCCCCCCCCCCCCOCCO[P@]1(=O)CO[C@@H](Cn2cnc3c(N)nc(N)nc32)CO1	pEC50	< 4.38
CCCCCCCCCCCCCCCCOCCO[P@]1(=O)CO[C@@H](Cn2cnc3c(N)nc(N)nc32)CO1	pEC50	< 4.36

Item `CC(C)OC(=O)[C@@H](CO[P@]1(=O)CO[C@@H](Cn2cnc3c(N)nc(N)nc32)CO1)NC(=O)[C@@H](N)C(C)C` has what recorded pEC50?
< 3.75

Now this one: `CCCCCCCCCCCCCCCCCCOCCO[P@@]1(=O)CO[C@@H](Cn2cnc3c(N)nc(N)nc32)CO1`
< 4.38

====

Test: Cytotoxicity against human HSB2 cells assessed as change in cell morphology
Type: cell-based, CCRF-HSB-2
MEASURE: MCC

Worked examples, 3 compounds total:
COMPOUND	TEST RESULT
CC(C)OC(=O)[C@@H](CO[P@@]1(=O)CO[C@@H](Cn2cnc3c(N)nc(N)nc32)CO1)NC(=O)[C@@H](N)C(C)C	> 177 µM
CCCCOC(=O)c1ccccc1OP1(=O)CO[C@@H](Cn2cnc3c(N)nc(N)nc32)CO1 (stereo not given in full)	≥ 205 µM
Nc1nc(N)c2ncn(C[C@@H](CO)OCP(=O)(O)OCC(F)(F)F)c2n1	> 62 µM

Bench note: what MCC did Nc1nc(N)c2ncn(C[C@H]3COP(=O)(OCC(F)(F)F)CO3)c2n1 (stereo not given in full) show?
> 239 µM

Consider next the compound `CCCCCCCCCCCCCCCCCCOCCOP(=O)(O)CO[C@H](CO)Cn1cnc2c(N)nc(N)nc21` in the same way.
≥ 39.3 µM

====

Assay: Cytotoxicity against HEL
Type: cell-based
Settings: human, HEL cells
Catalogue of CC50 values

The examples below pair each entry with its known result.
COMPOUND	CC50
Nc1nc(N)c2ncn(C[C@H]3COP(=O)(O)CO3)c2n1	> 333 µM
CC(C)(C)C(=O)OCOP(=O)(O)CO[C@H](CO)Cn1cnc2c(N)nc(N)nc21	≥ 227 µM

Would you mind telling me what CC50 value was observed for Nc1nc(N)c2ncn(C[C@H]3COP(=O)(OCC(F)(F)F)CO3)c2n1 (stereo partly drawn) ?
≥ 219 µM

====

Test: Cytotoxicity against HEL assessed as change in cell morphology
Assay type: cell-based
Conditions: human, HEL cells
MEASURE: MCC (µM)
Your answer should be a plain number; it is taken to be in µM.

COMPOUND	UNITS TEXT	TEST RESULT
CCCCCCCCCCCCCCCCOCCCOP1(=O)CO[C@@H](Cn2cnc3c(N)nc(N)nc32)CO1 (stereo not given in full)	µM	6.9

Now, please, on to the next compound.
Any idea what its MCC is? The compound is CCCCOC(=O)c1ccccc1OP1(=O)CO[C@@H](Cn2cnc3c(N)nc(N)nc32)CO1 (stereo not given in full)
103

====

The following molecules are shown together with reported CC50 values.
Experiment: Cytotoxicity against HEL
Format: cell-based
Conditions: human, HEL cells

Use the examples below as a reference point.
MOLECULE	CC50
CC(C)(C)C(=O)OCO[P@]1(=O)CO[C@@H](Cn2cnc3c(N)nc(N)nc32)CO1	> 222 µM
CC(C)(C)C(=O)OCOP1(=O)CO[C@@H](Cn2cnc3c(N)nc(N)nc32)CO1 (stereo not given in full)	≥ 201 µM
Nc1nc(N)c2ncn(C[C@@H](CO)OCP(=O)(O)OCC(F)(F)F)c2n1	> 250 µM
CCCCCCCCCCCCCCCCOCCCOP(=O)(O)CO[C@H](CO)Cn1cnc2c(N)nc(N)nc21	≥ 161 µM

--- query ---
Please report the recorded CC50 for `Nc1nc(N)c2ncn(C[C@@H](CO)OCP(=O)(O)O)c2n1` .
> 314 µM

====

Assay: Cytotoxicity against HEL assessed as change in cell morphology
Format: cell-based
Settings: human, HEL cells
MEASURE: MCC

COMPOUND SMILES	MEASURE	TEST RESULT
Nc1nc(N)c2ncn(C[C@H]3COP(=O)(O)CO3)c2n1	MCC	> 333 µM
CC(C)(C)C(=O)OCO[P@]1(=O)CO[C@@H](Cn2cnc3c(N)nc(N)nc32)CO1	MCC	≥ 231 µM

Turning now to a further record.
Bench note: what MCC did `CC(C)(C)C(=O)OCOP(=O)(O)CO[C@H](CO)Cn1cnc2c(N)nc(N)nc21` show?
> 227 µM
